Kindly state pIC50 for each of the entries shown.
- SYSTEM TESTED: human Cx43 hemichannels (Homo sapiens)
- Construct: Details of the human Cx26, Cx43, and Cx46 DNAs used to transform LB2003 cells have been published
- Sequence (P17302 whole entry): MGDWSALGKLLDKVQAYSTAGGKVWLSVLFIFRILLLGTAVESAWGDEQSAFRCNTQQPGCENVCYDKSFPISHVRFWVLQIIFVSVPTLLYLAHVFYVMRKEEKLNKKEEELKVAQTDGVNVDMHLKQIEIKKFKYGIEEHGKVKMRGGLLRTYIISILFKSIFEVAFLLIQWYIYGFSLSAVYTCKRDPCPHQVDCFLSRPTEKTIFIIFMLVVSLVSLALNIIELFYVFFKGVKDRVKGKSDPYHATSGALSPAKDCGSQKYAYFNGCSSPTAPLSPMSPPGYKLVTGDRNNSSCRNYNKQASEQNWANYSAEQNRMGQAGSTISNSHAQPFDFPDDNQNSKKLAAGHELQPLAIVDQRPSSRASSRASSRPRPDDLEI
- ASSAY NOTES: Cx43-dependent growth complementation assay in LB2003 cells
- SETUP CONDITIONS: LB2003-pREP4 cells, NLM + 8 mM KCl, 10 µM IPTG, OD600 after 18 h; mean ± SEM
Give bare numbers, as −log10 of the molar value.

NC[C@@H]1O[C@H](O[C@H]2[C@@H](O)[C@H](O[C@@H]3[C@@H](O)[C@H](N)C[C@H](N)[C@H]3O[C@H]3O[C@H](CO)[C@@H](O)[C@H](O)[C@H]3N)O[C@@H]2CO)[C@H](N)[C@@H](O)[C@@H]1O = 3.70

Switching to the query record.
[in] // pIC50 lookup, key: NC[C@H]1O[C@H](O[C@H]2[C@H](O)[C@@H](O[C@H]3O[C@H](CO)[C@@H](O)[C@H](N)[C@H]3O)[C@H](N)C[C@@H]2N)[C@H](N)[C@@H](O)[C@@H]1O
[out] 4.62

Cited source for all entries: paper PMC6149774
